All figures here come from patent US9346809B2.

Please respond with reported EC50 for every item in the list.
test target: TYK2 (aa 871-1187, catalytic domain, GST-tag) (Homo sapiens, UniProt P29597)
Construct: JAK1 (aa 850-1154) and TYK2 (aa 871-1187) are expressed with an N-terminally fused GST-tag; GST (N); purchased Carna Biosciences, Inc; host or cells: baculovirus expression system
Sequence (P29597 871-1187): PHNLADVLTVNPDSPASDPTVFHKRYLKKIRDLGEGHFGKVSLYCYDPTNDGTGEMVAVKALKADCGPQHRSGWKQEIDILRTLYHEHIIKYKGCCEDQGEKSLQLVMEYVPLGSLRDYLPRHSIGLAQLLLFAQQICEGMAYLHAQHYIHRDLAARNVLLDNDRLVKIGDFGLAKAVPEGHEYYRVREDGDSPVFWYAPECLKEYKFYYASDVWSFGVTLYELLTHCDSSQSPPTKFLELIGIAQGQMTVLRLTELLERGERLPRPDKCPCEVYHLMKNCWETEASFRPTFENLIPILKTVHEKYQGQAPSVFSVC
assay details: JAK kinase assay (HTRF, phosphorylation of TK substrate-biotin), TYK2
Format: biochemical
details: HTRF assay, ATP at Km (13 μM); read-out: TYK2 kinase inhibitory activity (EC50 indicator)

Worked cases, answers included:
Recorded result, O=C(c1ccc2c(c1)CCCC2)N1CCN(c2ncnc3[nH]ccc23)CC12CC2 , EC50: > 500 nM

Recorded result, Cc1c[nH]c2ncnc(N3CCN(C(=O)Cc4ccc(C#N)cc4)C4(CC4)C3)c12 , EC50: > 500 nM

Turning now to a further record.
Recorded result, NS(=O)(=O)Cc1ccc(C(=O)N2CCN(c3ncnc4[nH]ccc34)CC23CC3)cc1 , EC50: 100 to 500 nM
